Values were extracted from paper PMC5903260.

# Format: in vivo, human
# conditionLabel: male, human, plasma, topical, 0.75 mg, t max, first dose; Cohort 2, 0.75 mg bid (1.5 mg day^−1); median (range)

{"smilesInput": "CNC(=O)c1cc(Oc2ccc(NC(=O)Nc3ccc(Cl)c(C(F)(F)F)c3)c(F)c2)ccn1", "Tmax / h": 11.9}

---

# Assay type: in vivo, human
# conditionLabel: male, human, plasma, topical, 1.5 mg, C max, first dose; Cohort 4, 1.5 mg tid (9.0 mg day^−1); geometric mean/%CV (range)

{"compound": "CNC(=O)c1cc(Oc2ccc(NC(=O)Nc3ccc(Cl)c(C(F)(F)F)c3)c(F)c2)ccn1 [Regorafenib]", "Cmax / ng/mL": 0.302}

---

# Type: in vivo, human
# conditionLabel: male, human, plasma, topical, 0.75 mg, AUC0–tlast, Cohort 1, 0.75 mg single dose

{"smilesInput": "CNC(=O)c1cc(Oc2ccc(NC(=O)Nc3ccc(Cl)c(C(F)(F)F)c3)c(F)c2)ccn1", "AUC(0-t) (ng·h/mL)": 39.2}

---

# Type: in vivo, human
# conditionLabel: male, human, plasma, topical, 1.5 mg, AUC 0–8, first dose; Cohort 4, 1.5 mg tid (9.0 mg day^−1); geometric mean/%CV (range)

{"smilesInput": "CNC(=O)c1cc(Oc2ccc(NC(=O)Nc3ccc(Cl)c(C(F)(F)F)c3)c(F)c2)ccn1", "readoutUnits": "ng·h/mL", "AUC(0-t)": 0.451}

---

# Format: in vivo, human
# conditionLabel: human, plasma, topical, tmax,md (time to reach maximum plasma concentration following multiple drug administration), individual subjects, after the last dose

{"smilesInput": "CNC(=O)c1cc(Oc2ccc(NC(=O)Nc3ccc(Cl)c(C(F)(F)F)c3)c(F)c2)ccn1", "Tmax": "0 to 12 h"}

---

# Assay type: in vivo, human
# conditionLabel: male, human, plasma, topical, 1.5 mg, t max, first dose; Cohort 4, 1.5 mg tid (9.0 mg day^−1); median (range)
experimentalReadout: Tmax (h)

{"smilesInput": "CNC(=O)c1cc(Oc2ccc(NC(=O)Nc3ccc(Cl)c(C(F)(F)F)c3)c(F)c2)ccn1", "resultValue": 8}

---

# Assay type: in vivo, human
# conditionLabel: male, human, plasma, topical, 0.75 mg, AUC 0–8, first dose; Cohort 3, 0.75 mg tid (2.25 mg day^−1); geometric mean/%CV (range)

{"molecule": "CNC(=O)c1cc(Oc2ccc(NC(=O)Nc3ccc(Cl)c(C(F)(F)F)c3)c(F)c2)ccn1 [Regorafenib]", "AUC(0-t) (ng·h/mL)": 0.282}

---

# Format: in vivo, human
# conditionLabel: male, human, plasma, topical, 0.75 mg, t max, first dose; Cohort 3, 0.75 mg tid (2.25 mg day^−1); median (range)
experimentalReadout: Tmax (h)

{"compound": "CNC(=O)c1cc(Oc2ccc(NC(=O)Nc3ccc(Cl)c(C(F)(F)F)c3)c(F)c2)ccn1 [Regorafenib]", "readoutUnits": "h", "resultValue": 7.92}

---

# Format: in vivo, human
# conditionLabel: male, human, plasma, topical, 0.75 mg
experimentalReadout: AUC (ng·h/mL)

{"smilesInput": "CNC(=O)c1cc(Oc2ccc(NC(=O)Nc3ccc(Cl)c(C(F)(F)F)c3)c(F)c2)ccn1", "readoutUnits": "ng·h/mL", "resultValue": 40.7}

---

# Assay type: in vivo, human
# conditionLabel: male, human, plasma, topical, 0.75 mg, t max, first dose; Cohort 1, 0.75 mg single dose; median (range)

{"smilesInput": "CNC(=O)c1cc(Oc2ccc(NC(=O)Nc3ccc(Cl)c(C(F)(F)F)c3)c(F)c2)ccn1", "Tmax / h": 24}
